target: HCV replicon; format: cell-based, hepatitis C virus; details: HCV replicon cells, D-MEM with 5% fetal bovine serum, luciferase activity after two more days of cultivation, 50% enzyme activity level to control (DMSO only)
metric.name: HCV replicon replication inhibitory activity: EC50 (µg/mL)

{"columns": ["smiles.entry", "measured.value"],
 "data": [
  ["C/C=C/C[C@@H](C)[C@@H](O)[C@H]1C(=O)N[C@@H]([C@@H](C)O)C(=O)N(C)[C@H](C)C(=O)N(C)[C@@H](CC(C)C)C(=O)N[C@@H](CC(C)C)C(=O)N(C)[C@@H](CC(C)C)C(=O)N[C@@H](C)C(=O)N[C@H](C)C(=O)N(C)[C@@H](C[C@H](C)COC(=O)N2CCSCC2)C(=O)N[C@@H](CC(C)C)C(=O)N(C)[C@@H](C(C)C)C(=O)N1C", 0.031]
]}

----------
target: HCV replicon; assay type: cell-based, hepatitis C virus; conditions: HCV replicon cells, D-MEM with 5% fetal bovine serum, luciferase activity after two more days of cultivation, 50% enzyme activity level to control (DMSO only)
*1 amine or outer side, *2 acyl side, *3 side chain or, on linkers, in order; H or OH if unused. Where a SMILES comes first, the peptide text is derived from it. [ ]: non-standard residue; d: D form. The star is where a group is joined. X7 = C[C@H](COC(=O)[*:3])C[C@@H](C(=O)[*:2])N(C)[*:1]; MeBmt = C/C=C/C[C@@H](C)[C@@H](O)[C@H](NC)C(=O)O; NMeL = CN[C@@H](CC(C)C)C(=O)O; X8 = CN(c1cnn(CCN2CCOCC2)c1)*; NMeV = CN[C@H](C(=O)O)C(C)C; Sar = CNCC(=O)O
metric.name: HCV replicon replication inhibitory activity: EC50 (µg/mL)

{"columns": ["compound", "measured.value"],
 "data": [
  ["C/C=C/C[C@@H](C)[C@@H](O)[C@H]1C(=O)N[C@@H]([C@@H](C)O)C(=O)N(C)CC(=O)N(C)[C@@H](CC(C)C)C(=O)N[C@@H](CC(C)C)C(=O)N(C)[C@@H](CC(C)C)C(=O)N[C@@H](C)C(=O)N[C@H](C)C(=O)N(C)[C@@H](C[C@H](C)COC(=O)N(C)c2cnn(CCN3CCOCC3)c2)C(=O)N[C@@H](CC(C)C)C(=O)N(C)[C@@H](C(C)C)C(=O)N1C [Ex 36] (cyclo([MeBmt]T[Sar][NMeL]L[NMeL]A[dA][X7](X8)L[NMeV]))", 0.09]
]}

----------
Molecular target: HCV replicon
Format: cell-based, hepatitis C virus
Conditions: HCV replicon cells, D-MEM with 5% fetal bovine serum, luciferase activity after two more days of cultivation, 50% enzyme activity level to control (DMSO only)
Method: It is thought that the replication mechanism of the subgenomic HCV RNA in these cell lines is extremely similar to the replication of full length HCV RNA genome in hepatic cells infected with HCV. The inhibitory activity of the test compounds against the replication of HCV replicon was evaluated by quantifying the activity of luciferase, a reporter gene product encoded in the replicon system reported by Yokota et al., EMBO J 4: 602-608 (2003). […]
*1 amine or outer side, *2 acyl side, *3 side chain or, on linkers, in order; H or OH if unused. Where a SMILES comes first, the peptide text is derived from it. [ ]: non-standard residue; d: D form. X6 = C[C@H](COC(=O)N1CCOCC1)C[C@@H](C(=O)[*:2])N(C)[*:1]; MeBmt = C/C=C/C[C@@H](C)[C@@H](O)[C@H](NC)C(=O)O; NMeL = CN[C@@H](CC(C)C)C(=O)O; NMeV = CN[C@H](C(=O)O)C(C)C; Sar = CNCC(=O)O
metric.name: HCV replicon replication inhibitory activity: EC50 (µg/mL)

{"columns": ["compound", "measured.value"],
 "data": [
  ["C/C=C/C[C@@H](C)[C@@H](O)[C@H]1C(=O)N[C@@H]([C@@H](C)O)C(=O)N(C)[C@H](COC)C(=O)N(C)[C@@H](CC(C)C)C(=O)N[C@@H](CC(C)C)C(=O)N(C)[C@@H](CC(C)C)C(=O)N[C@@H](C)C(=O)N[C@H](C)C(=O)N(C)[C@@H](C[C@H](C)COC(=O)N(C)CCOC)C(=O)N[C@@H](CC(C)C)C(=O)N(C)[C@@H](C(C)C)C(=O)N1C [Ex 84]", 0.053],
  ["C/C=C/C[C@@H](C)[C@@H](O)[C@H]1C(=O)N[C@@H]([C@@H](C)O)C(=O)N(C)CC(=O)N(C)[C@@H](CC(C)C)C(=O)N[C@@H](CC(C)C)C(=O)N(C)[C@@H](CC(C)C)C(=O)N[C@@H](C)C(=O)N[C@H](C)C(=O)N(C)[C@@H](C[C@H](C)COC(=O)N2CCOCC2)C(=O)N[C@@H](CC(C)C)C(=O)N(C)[C@@H](C(C)C)C(=O)N1C [Ex 1] (cyclo([MeBmt]T[Sar][NMeL]L[NMeL]A[dA][X6]L[NMeV]))", 0.15]
]}
